Reference for the values: patent US20260258115A1

Overview of recorded Neutralization IC50 (RSV subtype A) for various binders
- SYSTEM: RSV fusion glycoprotein (RSV F) on RSV-A2 virus (respiratory syncytial virus, UniProt P03420 26-574)
- PROTOCOL_TEXT: cell-based or functional assay

BINDER	PROPERTY_LABEL	READOUT_VALUE
ADI-41376 (antibody, V domains shown, IgG1; also called Ab 673) VH: QVQLQESGGGVVQPGRSLRLSCAASGFTFSSYAMHWVRQAPGKGLEWVAVISFDGTANKYYADSVKGRFAISRDNSKNTLYLQMNSLRAEDTAVYYCAKDDAIYSGGWVGDAFDLWGQGTMVTVSS VL: EIVLTQSPATLSVSPGERATLSCRASQGVNSNLAWYQQKPGQAPRLLMYGASTRATGIPARFSGSGSETEFTLTISSLQSEDFAVYYCQQYNNWPRTFGQGTKVDIK	Neutralization IC50 (RSV subtype A)	> 25 µg/mL

// returns reported Neutralization IC50 (RSV subtype A) for input ADI-41385 (antibody, V domains shown, IgG1; also called Ab 681) VH: EVQLVESGGGVVQPGRSLRLSCAASGFTFSSYGMHWVRQAPGKGLEWVAVIWYDGNNEKYADSVKGRFTISRDNSKNTLYLQMNSLRAEDTAVYYCARPTQKYSSSWYWEDSIDYWGQGTLVTVSS VL: QSVLTQPPSVFGAPGQRVTISCTGSSSNIGAGYPVHWYQQLPGTAPKLLIYGNSNRPSGVPDRFSGSKSGTSASLAITGLQAEDEADYYCQSYDSSLSGGVVFGGGTKLTVL
> 25 µg/mL
